Molecular target: T1, Dsn1 (Homo sapiens, UniProt Q9H410 1-356)
T1 construct: Dsn1, subunit of human MIS12C; Subunit within the KMN network cryo-EM sample; residues N-terminal to Arg92 are disordered; source: High-5 insect cells, expressed and purified as part of MIS12C
T1 sequence (looked up): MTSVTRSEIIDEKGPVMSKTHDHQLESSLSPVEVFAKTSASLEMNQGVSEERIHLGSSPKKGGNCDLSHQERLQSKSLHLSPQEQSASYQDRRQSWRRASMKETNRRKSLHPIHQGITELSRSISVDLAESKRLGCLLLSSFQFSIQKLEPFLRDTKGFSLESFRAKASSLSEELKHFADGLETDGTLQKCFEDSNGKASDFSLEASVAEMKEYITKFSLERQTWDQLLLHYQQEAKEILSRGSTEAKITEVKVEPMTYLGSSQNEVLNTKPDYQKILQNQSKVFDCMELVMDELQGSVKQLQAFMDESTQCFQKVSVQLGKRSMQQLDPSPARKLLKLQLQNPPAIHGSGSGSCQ
Test: cryo-EM structure; NDC80C, MIS12C and KNL1C mixed 1:1:1 and run on Superose 6 in 20 mM HEPES pH 8.0, 80 mM NaCl, 1 mM MgCl2, 1 mM TCEP; about 1 mg/ml on UltrAuFoil grids; 3.0 Å (MIS12C heads 3.8 Å)
Conditions: both partners purified
measureName: binding result

>>> reported("Pmf1 (natural protein, Homo sapiens, UniProt Q6P1K2 1-205, looked up, Pmf1, subunit of human MIS12C; Subunit within the KMN network cryo-EM sample; source: High-5 insect cells, expressed and purified as part of MIS12C) MAEASSANLGSGCEEKRHEGSSSESVPPGTTISRVKLLDTMVDTFLQKLVAAGSYQRFTDCYKCFYQLQPAMTQQIYDKFIAQLQTSIREEISDIKEEGNLEAVLNALDKIVEEGKVRKEPAWRPSGIPEKDLHSVMAPYFLQQRDTLRRHVQKQEAENQQLADAVLAGRRQVEELQLQVQAQQQAWQALHREQRELVAVLREPE")
"binds"
>>> reported("Spc24 (natural protein, Homo sapiens, UniProt Q8NBT2 1-197, looked up, Spc24, subunit of human NDC80C; coordinates traced G86–W197; Subunit within the KMN network cryo-EM sample; source: High-5 insect cells, expressed and purified as part of NDC80C) MAAFRDIEEVSQGLLSLLGANRAEAQQRRLLGRHEQVVERLLETQDGAEKQLREILTMEKEVAQSLLNAKEQVHQGGVELQQLEAGLQEAGEEDTRLKASLLQLTRELEELKEIEADLERQEKEVDEDTTVTIPSAVYVAQLYHQVSKIEWDYECEPGMVKGIHHGPSVAQPIHLDSTQLSRKFISDYLWSLVDTEW")
"binds"
